Each item that follows carries a reported phosphorylation enrichment.
systemTested: EPHB2 (UniProt P29323)
Sequence (P29323 whole entry, looked up): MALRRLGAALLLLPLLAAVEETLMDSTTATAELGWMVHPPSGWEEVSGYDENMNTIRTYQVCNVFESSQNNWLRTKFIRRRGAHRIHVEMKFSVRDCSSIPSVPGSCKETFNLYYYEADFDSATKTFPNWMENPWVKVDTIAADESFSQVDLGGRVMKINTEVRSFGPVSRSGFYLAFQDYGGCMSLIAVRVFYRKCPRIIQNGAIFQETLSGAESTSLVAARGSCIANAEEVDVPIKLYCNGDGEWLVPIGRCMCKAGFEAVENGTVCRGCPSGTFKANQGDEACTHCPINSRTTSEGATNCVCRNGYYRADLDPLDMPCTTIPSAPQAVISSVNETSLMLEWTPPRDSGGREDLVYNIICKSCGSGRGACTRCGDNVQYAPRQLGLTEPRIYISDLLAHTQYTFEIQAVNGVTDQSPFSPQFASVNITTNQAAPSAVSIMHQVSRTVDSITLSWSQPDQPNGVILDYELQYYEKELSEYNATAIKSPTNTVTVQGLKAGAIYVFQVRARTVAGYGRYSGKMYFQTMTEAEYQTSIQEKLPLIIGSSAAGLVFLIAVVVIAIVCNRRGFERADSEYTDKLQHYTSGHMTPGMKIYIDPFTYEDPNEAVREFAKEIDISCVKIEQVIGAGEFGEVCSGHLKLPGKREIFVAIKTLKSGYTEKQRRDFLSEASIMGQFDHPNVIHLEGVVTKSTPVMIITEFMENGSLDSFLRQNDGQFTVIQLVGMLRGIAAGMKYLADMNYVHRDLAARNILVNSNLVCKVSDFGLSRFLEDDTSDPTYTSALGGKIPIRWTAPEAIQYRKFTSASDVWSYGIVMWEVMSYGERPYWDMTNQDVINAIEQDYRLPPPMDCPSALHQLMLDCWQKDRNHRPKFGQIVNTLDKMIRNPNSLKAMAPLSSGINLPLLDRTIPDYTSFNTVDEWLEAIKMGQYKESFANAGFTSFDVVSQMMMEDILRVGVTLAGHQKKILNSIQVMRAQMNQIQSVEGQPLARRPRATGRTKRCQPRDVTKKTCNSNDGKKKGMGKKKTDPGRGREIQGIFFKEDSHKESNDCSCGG
procedureDetails: phosphorylation enrichment, bacterial display (enrichment ratio); higher = better substrate or ligand; peptides without Tyr show the background;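 further: 11-residue human phosphosite peptides and single-mutation variants displayed on the E. coli surface, counted by deep sequencing, each peptide's frequency after selection divided by its frequency in the unselected input library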;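 further: frequency after pTyr selection over input frequency; kinase dosed for 20-30% of maximal phosphorylation in three min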
recordedEndpoint: phosphorylation enrichment

chain | experimentalResult
HKANEYFPVVI [ADAMTS18_Y764_L769I_YF] | 0.806
ITRDEYPSNPM [CEMIP2_Y1015] | 0.369
YPIDHYLGKEM [G6PD_Y202_R198P] | 0.54
VHNLDYFKETT [FGFR3_Y647_K650E_YF] | 0.5
IGHHAYGDQFR [IDH1_Y135_R132H_YF] | 0.417
AASHRYDLGGL [QPRT_Y162] | 0.375
FEEDSYVTRSQ [RET_Y905_K907T_YF] | 0.829
GQECEYPPTQD [METAP2_Y137] | 0.67
NCLRVYVAGRF [CRB1_Y711_E710V] | 0.627
EQKKFYNAVKK [SCN5A_Y1495_M1498V_YF] | 0.407
ISKQEYDEAGP [ACTC1_Y364] | 0.741
AQAGEYGAEAL [HBA1_Y25_H21Q] | 0.545
TVLWLYTGTRP [UGT1A1_Y337_R336L] | 0.487

* * *

systemTested: FGFR3 (UniProt P22607)
Sequence (P22607 whole entry, looked up): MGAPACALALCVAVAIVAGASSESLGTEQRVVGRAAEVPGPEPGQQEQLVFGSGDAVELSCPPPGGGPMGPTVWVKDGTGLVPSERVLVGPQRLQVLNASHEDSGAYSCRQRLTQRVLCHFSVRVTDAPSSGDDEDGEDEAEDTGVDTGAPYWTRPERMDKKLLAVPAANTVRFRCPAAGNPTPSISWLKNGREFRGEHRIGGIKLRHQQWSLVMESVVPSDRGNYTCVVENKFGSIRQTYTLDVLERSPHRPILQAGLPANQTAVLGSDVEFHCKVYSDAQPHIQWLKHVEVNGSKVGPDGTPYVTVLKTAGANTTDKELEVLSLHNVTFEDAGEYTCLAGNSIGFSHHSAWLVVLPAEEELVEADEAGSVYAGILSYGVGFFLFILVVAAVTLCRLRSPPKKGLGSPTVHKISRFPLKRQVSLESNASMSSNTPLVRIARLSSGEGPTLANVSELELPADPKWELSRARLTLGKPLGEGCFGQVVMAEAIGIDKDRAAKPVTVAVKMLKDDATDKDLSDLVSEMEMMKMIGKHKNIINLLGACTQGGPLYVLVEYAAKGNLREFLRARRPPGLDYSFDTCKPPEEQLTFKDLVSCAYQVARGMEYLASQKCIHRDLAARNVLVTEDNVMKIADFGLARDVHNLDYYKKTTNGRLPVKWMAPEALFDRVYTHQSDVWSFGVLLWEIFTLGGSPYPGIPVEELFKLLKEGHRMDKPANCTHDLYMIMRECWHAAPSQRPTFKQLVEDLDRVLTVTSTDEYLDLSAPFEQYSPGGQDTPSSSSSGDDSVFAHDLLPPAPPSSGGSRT
procedureDetails: phosphorylation enrichment, bacterial display (enrichment ratio); higher = better substrate or ligand; peptides without Tyr show the background

chain | systemTested | phosphorylation enrichment
QDLTDYLMKIL [ACTA2_Y190_R185Q] | FGFR3 (UniProt P22607) | 0.698
RSGNCYLDIRP [FBN1_Y1535] | FGFR3 (UniProt P22607) | 0.728
YEPDAYDDLDQ [ELP5_Y302] | FGFR3 (UniProt P22607) | 0.842
DTMQTYNGNDE [TSPAN7_Y131_A127T] | FGFR3 (UniProt P22607) | 0.817
GFEEAYSVSKK [PAFAH1B1_Y28_F31S_YF] | FGFR3 (UniProt P22607) | 0.492
MVTSGYKAKMI [EFR3A_Y447_T451M] | FGFR3 (UniProt P22607) | 0.389
ARLEYCENEKK [IRS1_Y47_Y47C] | FGFR3 (UniProt P22607) | 0.702
MAFDRYVAVCA [OR52J3_Y125] | FGFR3 (UniProt P22607) | 0.582
LTTEAYEWEPR [ELMOD3_Y61] | FGFR3 (UniProt P22607) | 1.06
FLNSIYKCRDE [ROS1_Y2227_S2229C] | FGFR3 (UniProt P22607) | 0.662
SISLRYEGRVY [ABL1_Y167] | FGFR3 (UniProt P22607) | 0.776
KILGRYYETSS [PAX2_Y72_G76S] | FGFR3 (UniProt P22607) | 0.541
PSQRRNVYYYS [PTEN_Y174_Y174N] | FGFR3 (UniProt P22607) | 1.41
SPPPAYTPMSG [ERBB4_Y1056] | FGFR3 (UniProt P22607) | 0.457

* * *

systemTested: EPHB1 (UniProt P54762)
Sequence (P54762 whole entry, looked up): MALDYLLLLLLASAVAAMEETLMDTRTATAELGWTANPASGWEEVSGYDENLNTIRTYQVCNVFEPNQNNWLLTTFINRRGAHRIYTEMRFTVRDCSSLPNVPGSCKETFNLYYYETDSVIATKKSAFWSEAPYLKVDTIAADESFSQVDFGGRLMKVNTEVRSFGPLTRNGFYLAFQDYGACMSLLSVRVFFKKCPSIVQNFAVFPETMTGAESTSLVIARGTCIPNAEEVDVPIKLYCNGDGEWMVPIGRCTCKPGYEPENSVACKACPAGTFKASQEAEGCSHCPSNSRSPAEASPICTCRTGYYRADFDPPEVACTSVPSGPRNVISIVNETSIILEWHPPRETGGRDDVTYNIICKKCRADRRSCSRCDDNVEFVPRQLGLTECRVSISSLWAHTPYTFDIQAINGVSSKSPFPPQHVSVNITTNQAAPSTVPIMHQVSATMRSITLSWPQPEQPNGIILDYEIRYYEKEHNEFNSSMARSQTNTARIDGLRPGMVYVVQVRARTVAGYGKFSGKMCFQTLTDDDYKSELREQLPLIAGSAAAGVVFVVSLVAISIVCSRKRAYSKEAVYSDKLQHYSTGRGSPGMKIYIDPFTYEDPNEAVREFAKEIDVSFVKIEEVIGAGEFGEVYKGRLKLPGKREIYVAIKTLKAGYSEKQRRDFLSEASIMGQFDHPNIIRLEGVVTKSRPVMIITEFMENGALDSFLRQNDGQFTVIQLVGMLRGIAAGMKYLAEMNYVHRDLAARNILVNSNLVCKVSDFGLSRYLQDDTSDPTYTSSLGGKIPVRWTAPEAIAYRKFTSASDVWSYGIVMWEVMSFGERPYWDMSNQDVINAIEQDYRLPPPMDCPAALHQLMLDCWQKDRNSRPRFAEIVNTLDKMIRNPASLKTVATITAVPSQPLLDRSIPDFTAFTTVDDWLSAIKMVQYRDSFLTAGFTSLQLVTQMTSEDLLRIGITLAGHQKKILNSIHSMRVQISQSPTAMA
procedureDetails: phosphorylation enrichment, bacterial display (enrichment ratio); higher = better substrate or ligand; peptides without Tyr show the background

chain | phosphorylation enrichment
IDQDKYAVRFI [FLNA_Y2388] | 0.459
IKNPQYFSDAC [NTRK1_Y496_E492K] | 0.37
HFNLTYRILSF [MMP23B_Y95] | 0.826
FDGGCYEQLFV [MC4R_Y41_S36Y_YF] | 1.09
RKLVDYNSARH [BIN1_Y150_D151N] | 0.311
FTFDPYSEEDP [IL2RB_Y387_YF] | 0.694
PTFKHYANSTQ [SLC12A3_Y70_E68K_YF] | 0.603
DGYIDYAEFAK [MCFD2_Y138] | 0.639
KVGNEYVNKGQ [MYH7_Y410_T412N] | 0.337
ISKQEYDEAGP [ACTC1_Y364] | 0.65
STGRSYAGVAV [KLHL3_Y577] | 0.25
LVMFIDAIFGM [SCN1A_Y1684_Y1684D] | 2
GEDPIYVTLEG [RTKtide_2018] | 5.64
SSYSGYIMMPN [LEF1_Y114] | 0.923
